Biological target: human Nav1.7 (Homo sapiens, UniProt Q15858)
Assay: FLIPR or FLIPR TETRA sodium dye assay with KCl and test article pre-incubation (CoroNa Green, veratridine + scorpion venom)
Type: cell-based
Details: recombinant human Nav1.7 in HEK293 cells
Field: label. Allowed values: YES (IC50 < 0.9 µM) or NO (IC50 >= 0.9 µM).

>  <smiles_record>
NC(=O)c1cccc(-c2ccc3c(c2)CCCN3c2cccc(C(F)(F)F)c2)n1

>  <category_label>
NO

$$$$
>  <smiles_record>
O=S(=O)(c1ccc(C(F)(F)F)cc1)N1CCCc2cc(-c3cccc([C@H](O)CO)n3)ccc21

>  <category_label>
YES

$$$$
>  <smiles_record>
O=C1Cc2cc(-c3cccc([C@H](O)CO)n3)ccc2N1Cc1ccc(C(F)(F)F)cc1

>  <category_label>
NO

$$$$
>  <smiles_record>
NC(=O)c1cccc(-c2ccc3c(c2)OCC=C3c2ccc(C(F)(F)F)cc2)n1

>  <category_label>
YES

$$$$
>  <smiles_record>
C[C@H](Nc1cc(C(N)=O)nc(-c2ccc3c(c2)OCCCN3c2ccc(C(F)(F)F)cc2)n1)C(N)=O

>  <category_label>
YES

$$$$
>  <smiles_record>
NC(=O)c1cccc(-c2ccc3c(c2)COCCN3c2ccc(C(F)(F)F)cc2)n1

>  <category_label>
YES

$$$$
>  <smiles_record>
NC(=O)c1cc(O[C@H]2CCNC2=O)nc(-c2ccc3c(c2)OCCCN3c2ccc(C(F)(F)F)cc2)n1

>  <category_label>
YES

$$$$
>  <smiles_record>
CN(C)CC(=O)N1CCN(c2ccc(C(F)(F)F)cc2)c2ccc(-c3cccc([C@H](O)CO)n3)cc2C1

>  <category_label>
NO

$$$$

====

Recorded Ki, one value per entry.
Target: hNav1.7 (Homo sapiens, UniProt Q15858)
Sequence (Q15858 1-1977 isoform Q15858-3): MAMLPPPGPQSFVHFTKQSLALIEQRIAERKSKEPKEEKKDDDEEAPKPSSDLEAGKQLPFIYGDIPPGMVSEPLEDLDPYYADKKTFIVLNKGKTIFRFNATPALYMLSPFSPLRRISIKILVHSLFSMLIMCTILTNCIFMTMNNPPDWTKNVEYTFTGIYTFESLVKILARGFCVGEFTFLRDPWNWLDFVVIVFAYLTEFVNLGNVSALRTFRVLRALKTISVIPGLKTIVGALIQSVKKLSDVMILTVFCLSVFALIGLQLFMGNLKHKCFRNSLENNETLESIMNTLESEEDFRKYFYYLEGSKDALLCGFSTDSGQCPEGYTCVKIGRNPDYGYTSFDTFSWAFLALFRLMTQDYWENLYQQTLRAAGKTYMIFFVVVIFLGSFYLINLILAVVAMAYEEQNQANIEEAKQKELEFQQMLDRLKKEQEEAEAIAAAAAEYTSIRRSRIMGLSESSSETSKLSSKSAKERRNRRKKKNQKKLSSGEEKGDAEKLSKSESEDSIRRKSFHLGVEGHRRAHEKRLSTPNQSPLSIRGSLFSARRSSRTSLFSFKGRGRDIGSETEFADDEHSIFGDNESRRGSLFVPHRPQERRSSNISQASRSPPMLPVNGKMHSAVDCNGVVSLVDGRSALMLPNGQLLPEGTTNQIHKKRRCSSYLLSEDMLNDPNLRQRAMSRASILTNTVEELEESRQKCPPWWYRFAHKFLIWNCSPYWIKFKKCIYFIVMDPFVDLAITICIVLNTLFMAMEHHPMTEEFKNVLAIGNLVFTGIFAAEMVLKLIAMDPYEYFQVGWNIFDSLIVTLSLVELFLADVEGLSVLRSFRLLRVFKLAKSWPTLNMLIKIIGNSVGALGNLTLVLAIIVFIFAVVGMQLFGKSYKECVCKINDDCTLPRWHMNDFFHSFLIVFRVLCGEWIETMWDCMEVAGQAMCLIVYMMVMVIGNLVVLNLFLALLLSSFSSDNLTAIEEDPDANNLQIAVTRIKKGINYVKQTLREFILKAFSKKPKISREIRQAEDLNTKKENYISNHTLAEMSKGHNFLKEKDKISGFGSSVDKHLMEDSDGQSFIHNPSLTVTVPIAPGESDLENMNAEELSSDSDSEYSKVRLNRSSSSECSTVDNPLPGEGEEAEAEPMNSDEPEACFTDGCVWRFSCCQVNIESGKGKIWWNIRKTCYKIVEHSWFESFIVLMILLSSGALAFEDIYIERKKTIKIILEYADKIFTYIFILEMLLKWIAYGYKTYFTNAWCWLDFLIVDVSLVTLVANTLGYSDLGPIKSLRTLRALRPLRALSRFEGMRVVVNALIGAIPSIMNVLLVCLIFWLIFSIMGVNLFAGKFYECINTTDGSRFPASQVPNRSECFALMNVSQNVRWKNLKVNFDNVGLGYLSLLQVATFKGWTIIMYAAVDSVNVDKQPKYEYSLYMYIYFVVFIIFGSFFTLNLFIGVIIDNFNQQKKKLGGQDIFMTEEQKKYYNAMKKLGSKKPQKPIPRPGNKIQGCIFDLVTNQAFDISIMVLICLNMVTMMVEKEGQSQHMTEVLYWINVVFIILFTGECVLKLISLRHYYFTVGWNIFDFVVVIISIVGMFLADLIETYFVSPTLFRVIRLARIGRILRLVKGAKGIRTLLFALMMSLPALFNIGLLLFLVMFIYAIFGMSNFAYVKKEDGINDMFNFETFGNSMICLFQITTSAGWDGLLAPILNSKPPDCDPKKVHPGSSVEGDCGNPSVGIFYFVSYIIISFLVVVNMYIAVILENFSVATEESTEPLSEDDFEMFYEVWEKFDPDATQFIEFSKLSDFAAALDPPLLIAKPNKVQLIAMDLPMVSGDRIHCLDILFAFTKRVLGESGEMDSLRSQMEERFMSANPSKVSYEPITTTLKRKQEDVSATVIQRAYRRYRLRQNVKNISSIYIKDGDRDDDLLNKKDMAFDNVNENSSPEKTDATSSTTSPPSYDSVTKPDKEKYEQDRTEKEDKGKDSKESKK
Test: Electrophysiology (EP) assay, whole-cell patch clamp, hNav1.7 expressing HEK-293 cells
Assay type: cell-based
Conditions: hNav1.7 HEK-293 cells; affinity for the inactivated state; read-out: Nav1.7 Activity (μM) EP assay Ki
assay_readout: Ki

>  <compound>
NC(=O)N1CCN(c2ccc(C(F)(F)F)cc2)c2ccc(-c3cccc([C@H](O)CO)n3)cc2C1 [Compound 98]

>  <experimental_target>
hNav1.7 (Homo sapiens, UniProt Q15858)

>  <assay_readout>
Ki

>  <value_measured>
0.451 µM

$$$$
>  <compound>
CC(C)CN1CCN(S(C)(=O)=O)Cc2cc(-c3cccc([C@H](O)[C@@H](O)C(N)=O)n3)ccc21 [Compound 125]

>  <experimental_target>
hNav1.7 (Homo sapiens, UniProt Q15858)

>  <assay_readout>
Ki

>  <value_measured>
7.1 µM

$$$$
>  <compound>
O=C(CO)N1CCN(c2ccc(C(F)(F)F)cc2)c2ccc(-c3cccc([C@H](O)CO)n3)cc2C1 [Compound 99]

>  <experimental_target>
hNav1.7 (Homo sapiens, UniProt Q15858)

>  <assay_readout>
Ki

>  <value_measured>
1.23 µM

$$$$
>  <compound>
C[C@H](Nc1cc(C(N)=O)nc(-c2ccc3c(c2)OCCC3c2ccc(C(F)(F)F)cc2)n1)C(N)=O (stereo partly shown) [Compound 111]

>  <experimental_target>
hNav1.7 (Homo sapiens, UniProt Q15858)

>  <assay_readout>
Ki

>  <value_measured>
0.459 µM

$$$$
>  <compound>
CN1CCN(c2ccc(C(F)(F)F)cc2)c2ccc(-c3cccc(C(N)=O)n3)cc2C1 [Compound 85]

>  <experimental_target>
hNav1.7 (Homo sapiens, UniProt Q15858)

>  <assay_readout>
Ki

>  <value_measured>
0.399 µM

$$$$
>  <compound>
NC(=O)CN1CCN(c2ccc(C(F)(F)F)cc2)c2ccc(-c3cccc([C@H](O)CO)n3)cc2C1 [Compound 103]

>  <experimental_target>
hNav1.7 (Homo sapiens, UniProt Q15858)

>  <assay_readout>
Ki

>  <value_measured>
0.299 µM

$$$$
>  <compound>
CC(=O)N1CCN(c2ccc(C(F)(F)F)cc2)c2ccc(-c3cccc(C(N)=O)n3)cc2C1 [Compound 91]

>  <experimental_target>
hNav1.7 (Homo sapiens, UniProt Q15858)

>  <assay_readout>
Ki

>  <value_measured>
0.3 µM

$$$$

====

Biological target: human Nav1.7 (Homo sapiens)
Experiment: FLIPR or FLIPR TETRA sodium dye assay with KCl and test article pre-incubation (CoroNa Green, veratridine + scorpion venom)
Format: cell-based
Conditions: recombinant human Nav1.7 in HEK293 cells
assay_readout: IC50 (µM)

>  <compound>
C[C@H](Nc1cc(C(N)=O)nc(-c2ccc3c(c2)OC[C@H](O)[C@H]3c2ccc(C(F)(F)F)cc2)n1)C(N)=O

>  <assay_readout>
IC50

>  <limit_operator>
>

>  <value_measured>
20

$$$$
>  <compound>
C[C@H](Nc1cc(C(N)=O)nc(-c2ccc3c(c2)CNCCN3c2ccc(C(F)(F)F)cc2)n1)C(N)=O

>  <assay_readout>
IC50

>  <limit_operator>
>

>  <value_measured>
20

$$$$
>  <compound>
CNC(=O)CN1CCN(c2ccc(C(F)(F)F)cc2)c2ccc(-c3cccc([C@H](O)CO)n3)cc2C1

>  <assay_readout>
IC50

>  <limit_operator>
=

>  <value_measured>
0.644

$$$$
>  <compound>
NC(=O)c1cccc(-c2ccc3c(c2)CCN3c2ccc(C(F)(F)F)cc2)n1

>  <assay_readout>
IC50

>  <limit_operator>
>

>  <value_measured>
20

$$$$
>  <compound>
NC(=O)c1cccc(-c2ccc3c(c2)CN(C(=O)C2CC2)CCN3c2ccc(C(F)(F)F)cc2)n1

>  <assay_readout>
IC50

>  <limit_operator>
>

>  <value_measured>
20

$$$$
>  <compound>
NC(=O)CN1CCN(C2CCCCC2)c2ccc(-c3cccc([C@H](O)CO)n3)cc2C1

>  <assay_readout>
IC50

>  <limit_operator>
=

>  <value_measured>
2.61

$$$$
>  <compound>
NC(=O)c1cccc(-c2ccc3c(c2)CNCCN3c2ccc(C(F)(F)F)cc2)n1

>  <assay_readout>
IC50

>  <limit_operator>
=

>  <value_measured>
1.92

$$$$
>  <compound>
C[C@H](Nc1cc(C(N)=O)nc(-c2ccc3c(c2)CCCN3c2ccc(C(F)(F)F)cc2)n1)C(N)=O

>  <assay_readout>
IC50

>  <limit_operator>
=

>  <value_measured>
0.653

$$$$
>  <compound>
CC(=O)N1CCN(c2ccc(C(F)(F)F)cc2)c2ccc(-c3cccc([C@H](O)CO)n3)cc2C1

>  <assay_readout>
IC50

>  <limit_operator>
=

>  <value_measured>
0.662

$$$$
>  <compound>
CC(=O)N1CCN(C2CCCCC2)c2ccc(-c3cccc([C@H](O)CO)n3)cc2C1

>  <assay_readout>
IC50

>  <limit_operator>
=

>  <value_measured>
8.8

$$$$
>  <compound>
C[C@H](Nc1cc(C(N)=O)nc(-c2ccc3c(c2)CN(C)CCN3c2ccc(C(F)(F)F)cc2)n1)C(N)=O

>  <assay_readout>
IC50

>  <limit_operator>
>

>  <value_measured>
20

$$$$
>  <compound>
NC(=O)c1cc(-c2ccc3c(c2)CN(CC2CC2)CCN3c2ccc(C(F)(F)F)cc2)cc([C@H](O)CO)n1

>  <assay_readout>
IC50

>  <limit_operator>
=

>  <value_measured>
9.61

$$$$
>  <compound>
OC[C@@H](O)c1cccc(-c2ccc3c(c2)CN(Cc2ncc[nH]2)CCN3c2ccc(C(F)(F)F)cc2)n1

>  <assay_readout>
IC50

>  <limit_operator>
=

>  <value_measured>
0.669

$$$$
>  <compound>
N#CCN1CCN(c2ccc(C(F)(F)F)cc2)c2ccc(-c3cccc(C(N)=O)n3)cc2C1

>  <assay_readout>
IC50

>  <limit_operator>
=

>  <value_measured>
0.857

$$$$
>  <compound>
NC(=O)c1cccc(-c2ccc3c(c2)OCCC3c2ccc(C(F)(F)F)cc2)n1 (centres unmarked)

>  <assay_readout>
IC50

>  <limit_operator>
=

>  <value_measured>
0.142

$$$$
>  <compound>
OC[C@@H](O)c1cccc(-c2ccc3c(c2)CCCCN3C2CCCCC2)n1

>  <assay_readout>
IC50

>  <limit_operator>
=

>  <value_measured>
0.331

$$$$
>  <compound>
O=C(CO)N1CCN(c2ccc(C(F)(F)F)cc2)c2ccc(-c3cccc([C@H](O)CO)n3)cc2C1

>  <assay_readout>
IC50

>  <limit_operator>
=

>  <value_measured>
0.896

$$$$
